# measurement.notes: Solubility estimate by adding solvent aliquots to weighed solid, dissolution judged visually
# condition.label: acetone/H2O 80/20, organic solvent or mixture, thermodynamic from solid
Counter-ions that a name gives are not always drawn.
readout.name: solubility

Request: Assign solubility to the following record: COc1cc(CCN)c(OC)cc1Br [2C-B.HCl]
Response: > 79 mg/mL
